The measurements presented in this section are drawn from paper PMC9482650.

- TARGET_SYSTEM: PTPN3, P26045
- Sequence (P26045 505-587): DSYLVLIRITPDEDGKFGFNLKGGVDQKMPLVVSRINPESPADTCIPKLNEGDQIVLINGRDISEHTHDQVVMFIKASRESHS
- METHOD_NOTES: holdup assay
- Design: key: below the threshold = too weak to quantify, mostly under pKd 3.1 to 4
- RUN_PARAMETERS: plain residues with an end cap or a label only (N-terminal biotin on a linker: ado-ado)
ASSAY_READOUT: pKd

Solved entries:
Request: Name the reported pKd value associated with the binder KLQNPNQSVV [TYRP1, P17643]
Result: below the threshold

Request: Name the reported pKd value associated with the binder DLLGGGSDSI [TNRC6B, Q9UPQ9]
Result: below the threshold

Request: Name the reported pKd value associated with the binder QQGLLPHSSC [TYRO3, Q06418]
Result: below the threshold

Request: Name the reported pKd value associated with the binder PSVYSRSQYV [CLDN8, P56748]
Result: below the threshold

Request: Name the reported pKd value associated with the binder DAAHHDESNC [FMNL3, Q8IVF7]
Result: below the threshold

Continuing:
Request: Name the reported pKd value associated with the binder PKSNSSKEYV [CLDN7, O95471]
Result: below the threshold

Request: Name the reported pKd value associated with the binder TFSRRPKTRV [CD226, Q15762]
Result: below the threshold
